Target or system JAK3 (Homo sapiens); recorded quantity pIC50.
pIC50 here is simply -log10 of the concentration when that concentration is written in mol/L.

>  <given-smiles>
CCC(=O)c1cc2c(o1)C(=O)c1ccccc1C2=O

>  <pIC50>
7.99

$$$$

Here's the next entry for you.
Task: Provide the documented pIC50 with JAK3 (Homo sapiens) as the system for "CC(=O)c1cc2c(o1)C(=O)c1ccccc1C2=O"
Sequence (P52333 781-1124 limits assumed): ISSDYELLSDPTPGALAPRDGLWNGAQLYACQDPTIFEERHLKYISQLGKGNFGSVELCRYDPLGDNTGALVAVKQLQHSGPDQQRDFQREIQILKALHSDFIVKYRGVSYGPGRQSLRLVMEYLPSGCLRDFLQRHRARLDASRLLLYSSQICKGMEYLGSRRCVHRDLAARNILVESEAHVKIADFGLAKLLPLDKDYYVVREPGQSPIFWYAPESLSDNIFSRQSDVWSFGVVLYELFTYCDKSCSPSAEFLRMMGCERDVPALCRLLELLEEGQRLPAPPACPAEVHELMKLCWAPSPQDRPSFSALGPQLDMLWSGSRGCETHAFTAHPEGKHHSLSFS
Result: 7.83

----------
System: HEL cells
test-name: Presto Blue cytotoxicity assay on HEL cells
Assay type: cell-based, human
assay-context: Homo sapiens, HEL, 72 h, read-out: IC50 against HEL cell viability
Below: a set of entries, each annotated with reported pIC50.
In plain terms, pIC50 is the concentration in mol/L turned into minus its base-10 logarithm.

>  <molecule>
N#CC[C@H](C1CCCC1)n1cc(-c2ncnc3[nH]ccc23)cn1 [Ruxolitinib, ruxolitinib, reference compound]

>  <pIC50>
4.58

$$$$
>  <molecule>
CC(=O)c1cc2c(o1)C(=O)c1ccccc1C2=O

>  <pIC50>
5.48

$$$$

Task: Reported pIC50 for "CCC(=O)c1cc2c(o1)C(=O)c1ccccc1C2=O" : what is it?
Result: 5.18
